- SYSTEM: Luciferin 4-monooxygenase (Photinus pyralis, UniProt P08659)
- Sequence (P08659 whole entry): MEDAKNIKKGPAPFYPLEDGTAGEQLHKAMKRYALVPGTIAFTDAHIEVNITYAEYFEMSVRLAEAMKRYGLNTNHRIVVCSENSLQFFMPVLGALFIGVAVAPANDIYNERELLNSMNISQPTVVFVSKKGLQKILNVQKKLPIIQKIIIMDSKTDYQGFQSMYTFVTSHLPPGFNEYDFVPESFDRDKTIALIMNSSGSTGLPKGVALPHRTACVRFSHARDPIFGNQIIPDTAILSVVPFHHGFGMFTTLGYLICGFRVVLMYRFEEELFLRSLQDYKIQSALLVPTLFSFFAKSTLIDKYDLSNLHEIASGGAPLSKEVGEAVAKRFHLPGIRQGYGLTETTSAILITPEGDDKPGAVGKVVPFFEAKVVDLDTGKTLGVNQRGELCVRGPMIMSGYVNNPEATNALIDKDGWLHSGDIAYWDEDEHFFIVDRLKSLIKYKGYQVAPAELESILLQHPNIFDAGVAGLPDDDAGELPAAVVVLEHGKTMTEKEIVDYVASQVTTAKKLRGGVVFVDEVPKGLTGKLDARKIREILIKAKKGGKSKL
- METHOD_DESCRIPTION: Inhibition of Photinus pyralis luciferase
Kindly supply the reported IC50 values for the records listed here.

Some entries whose results are on file:
{"COMPOUND": "CCOC(=O)N1CCN(C(=O)c2cc(-c3ccc(OCC)cc3)nc3ccccc23)CC1", "IC50": "0.9 µM"}
{"COMPOUND": "c1ccc(-c2noc(-c3ccc4ccccc4c3)n2)cc1", "IC50": "0.4 µM"}
{"COMPOUND": "CN(C)c1ccc(N/C=C\\C(=O)c2ccccc2)cc1", "IC50": "0.21 µM"}
{"COMPOUND": "COc1ccc2nc(NC(=O)c3ccoc3C)sc2c1", "IC50": "1.2 µM"}
{"COMPOUND": "Cc1ccc2nc(NC(=O)c3cccs3)sc2c1", "IC50": "0.5 µM"}

Batch lookup, IC50 per entry.
1. C[C@@H](C(=O)O)c1ccc(N2Cc3ccccc3C2=O)cc1 [(R)-INDOPROFEN]
2. O=C(/C=C\Nc1cccc(F)c1)c1ccc2c(c1)OCO2

-- reply
1: 0.2 µM; 2: 0.3 µM

Return reported IC50 values for all items listed beneath this line.
1. Cc1ccc(-c2nc(-c3ccccn3)no2)cc1Cl
2. CCOc1ccc2nc(NC(=O)c3ccoc3C)sc2c1

-- reply
1: 0.22 µM; 2: 0.65 µM

====

- SYSTEM: UniProt:Q27757
- Sequence (Q27757 whole entry): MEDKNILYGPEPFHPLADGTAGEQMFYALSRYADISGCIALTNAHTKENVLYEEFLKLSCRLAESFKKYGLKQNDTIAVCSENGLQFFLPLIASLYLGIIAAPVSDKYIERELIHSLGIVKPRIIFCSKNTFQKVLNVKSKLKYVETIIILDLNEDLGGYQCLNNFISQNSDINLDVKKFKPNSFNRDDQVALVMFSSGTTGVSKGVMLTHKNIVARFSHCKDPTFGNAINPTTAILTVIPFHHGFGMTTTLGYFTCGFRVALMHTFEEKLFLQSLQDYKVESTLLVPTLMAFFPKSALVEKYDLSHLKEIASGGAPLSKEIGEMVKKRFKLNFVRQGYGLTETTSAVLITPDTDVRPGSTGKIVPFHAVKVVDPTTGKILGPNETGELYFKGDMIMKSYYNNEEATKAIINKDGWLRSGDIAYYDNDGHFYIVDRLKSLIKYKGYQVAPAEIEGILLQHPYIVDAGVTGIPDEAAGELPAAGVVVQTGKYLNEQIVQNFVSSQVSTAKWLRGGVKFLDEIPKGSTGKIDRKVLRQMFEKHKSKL
REPORTED_PROPERTY: IC50

{"COMPOUND": "Cc1ccc(-c2nc(-c3ccccn3)no2)cc1Cl", "SYSTEM": "UniProt:Q27757", "EXPERIMENTAL_RESULT": "22 µM"}

Value sought for every listed compound: IC50.
1. CCOc1ccc2nc(NC(=O)c3ccoc3C)sc2c1
2. Cc1cccc(/C=C/c2ccccc2)n1
3. C[C@@H](C(=O)O)c1ccc(N2Cc3ccccc3C2=O)cc1 [(R)-INDOPROFEN]
4. CC(C)(C)C(=O)Nc1ccc(NC(=O)c2cccc(O)c2)nc1
5. CCOc1ccc(-c2cc(C(=O)N3CCC4(CC3)OCCO4)c3ccccc3n2)cc1

-- reply
["3.8 µM", "> 50 µM", "> 50 µM", "> 30 µM", "> 50 µM"]

Quick one: give me IC50 for each item below, same order please.
1. COc1ccc2nc(NC(=O)c3ccoc3C)sc2c1
2. Cc1ccc2nc(NC(=O)c3cccs3)sc2c1
3. CN(C)c1ccc(N/C=C\C(=O)c2ccccc2)cc1

-- reply
3.6 µM
> 50 µM
3.2 µM

====

- SYSTEM: UniProtKB P08659
- METHOD_DESCRIPTION: Inhibition of Photinus pyralis luciferase
REPORTED_PROPERTY: log10(IC50) (log10 of the value in µM)
Plainly stated, the numbers are log10 of IC50 given in µM.

Reference set (6 entries):
{"MOL": "Cc1ccc(C(=O)Cn2c3c(sc2=N)CCCC3)cc1", "log10(IC50)": -0.49}
{"MOL": "c1ccc(-c2noc(-c3ccc4ccccc4c3)n2)nc1", "log10(IC50)": -1.00}
{"MOL": "COc1ccc(C(=O)NC(=O)Nc2cc(C)ccn2)cc1", "log10(IC50)": -0.39}
{"MOL": "Clc1cccc(-c2nc(-c3ccccn3)no2)c1", "log10(IC50)": -0.30}
{"MOL": "CCOc1ccc2nc(NC(=O)Nc3cccs3)sc2c1", "log10(IC50)": -0.22}
{"MOL": "Cc1ccc(O)c(/N=N/c2ccccc2)n1", "log10(IC50)": 0.65}

Consider now this further compound.
-- ask Specify the recorded log10(IC50) for `CN1CCN(C(=O)COc2ccc(-c3nc4ccccc4s3)cc2)CC1` , system: UniProtKB P08659.
-- reply -0.52

====

- SYSTEM: Luciferin 4-monooxygenase (Photinus pyralis, UniProt P08659)
- METHOD_DESCRIPTION: Inhibition of Photinus pyralis luciferase by Steady-Glo reporter gene assay
pIC50: −log10 of the molar value.
Output label 1 for pIC50 not less than 6; output label 0 otherwise.

Please review the following examples before continuing.
{"MOL": "c1ccc(-c2noc(-c3ccc4ccccc4c3)n2)nc1", "ANSWER_LABEL": "label 1"}
{"MOL": "COc1ccc2nc(NC(=O)c3ccoc3C)sc2c1", "ANSWER_LABEL": "label 0"}
{"MOL": "CCOc1ccc2nc(NC(=O)Nc3cccs3)sc2c1", "ANSWER_LABEL": "label 0"}
{"MOL": "O=C(/C=C\\Nc1ccccc1Br)c1ccccn1", "ANSWER_LABEL": "label 1"}
{"MOL": "COc1ccc(C(=O)Nc2ccc(C)cn2)c(OC)c1", "ANSWER_LABEL": "label 1"}

-- ask Decide: is the reported value of pIC50 for `CN(C)c1ccc(N/C=C\C(=O)c2ccccc2)cc1` equal to or greater than 6?
-- reply label 1

-- ask In plain terms: is recorded pIC50 at least 6 for `O=C(/C=C\Nc1ccccn1)c1ccc(Cl)cc1` ?
-- reply label 1

-- ask # check: pIC50 of `Cc1ccc2nc(NC(=O)c3cccs3)sc2c1` is greater than or equal to 6
-- reply label 0

-- ask Given the entry `O=c1c2ccccc2cnn1-c1nc2ccccc2s1` , answer whether its pIC50 meets or surpasses 6.
-- reply label 1

-- ask For this compound, is measured pIC50 6 or higher? `O=C(/C=C\Nc1ccc(F)cc1)c1ccco1`
-- reply label 0

-- ask Given `Cc1ccc(-c2noc(-c3ccccc3Br)n2)cc1` , state whether its pIC50 is at least 6.
-- reply label 0

-- ask Is pIC50 for `Cc1ccc(-c2nc(-c3ccccc3)no2)c(Cl)c1` at or above 6?
-- reply label 1

====

Please provide measured pIC50 for the entries that follow.
- SYSTEM: Luciferin 4-monooxygenase (Photinus pyralis, UniProt P08659)
- METHOD_DESCRIPTION: Inhibition of Photinus pyralis luciferase
Give bare numbers, as −log10 of the molar value.

Reference set (6 entries):
{"MOL": "CS(=O)(=O)c1ccc2nc(NC(=O)c3cccs3)sc2c1", "SYSTEM": "Luciferin 4-monooxygenase (Photinus pyralis, UniProt P08659)", "REPORTED_PROPERTY": "pIC50", "EXPERIMENTAL_RESULT": 5.96}
{"MOL": "O=C(/C=C\\Nc1ccccn1)c1ccc(Cl)cc1", "SYSTEM": "Luciferin 4-monooxygenase (Photinus pyralis, UniProt P08659)", "REPORTED_PROPERTY": "pIC50", "EXPERIMENTAL_RESULT": 5.70}
{"MOL": "O=c1c2ccccc2cnn1-c1nc2ccccc2s1", "SYSTEM": "Luciferin 4-monooxygenase (Photinus pyralis, UniProt P08659)", "REPORTED_PROPERTY": "pIC50", "EXPERIMENTAL_RESULT": 6.52}
{"MOL": "COc1ccc(-c2cc3ccc(OCc4nn[nH]n4)cc3oc2=O)cc1", "SYSTEM": "Luciferin 4-monooxygenase (Photinus pyralis, UniProt P08659)", "REPORTED_PROPERTY": "pIC50", "EXPERIMENTAL_RESULT": 5.96}
{"MOL": "CCOc1ccc(-c2cc(C(=O)N3CCN(C)CC3)c3ccccc3n2)cc1", "SYSTEM": "Luciferin 4-monooxygenase (Photinus pyralis, UniProt P08659)", "REPORTED_PROPERTY": "pIC50", "EXPERIMENTAL_RESULT": 5.89}
{"MOL": "CCOc1ccc(NC(=O)c2ccccc2OC)cc1", "SYSTEM": "Luciferin 4-monooxygenase (Photinus pyralis, UniProt P08659)", "REPORTED_PROPERTY": "pIC50", "EXPERIMENTAL_RESULT": 6.22}

Okay, here is my list. What is pIC50 for each of these?
1. Brc1ccc(-c2nc(-c3ccccn3)no2)o1
2. Clc1cccc(/C=N\C=N\c2cccc(Cl)c2)c1
3. CCOc1ccc(-c2cc(C(=O)N3CCC4(CC3)OCCO4)c3ccccc3n2)cc1

-- reply
[5.49, 5.35, 6.15]
